# Kd per record follows
Target: human Siglec-2/CD22 protein (Homo sapiens, UniProt P20273)
Sequence (P20273 20-847): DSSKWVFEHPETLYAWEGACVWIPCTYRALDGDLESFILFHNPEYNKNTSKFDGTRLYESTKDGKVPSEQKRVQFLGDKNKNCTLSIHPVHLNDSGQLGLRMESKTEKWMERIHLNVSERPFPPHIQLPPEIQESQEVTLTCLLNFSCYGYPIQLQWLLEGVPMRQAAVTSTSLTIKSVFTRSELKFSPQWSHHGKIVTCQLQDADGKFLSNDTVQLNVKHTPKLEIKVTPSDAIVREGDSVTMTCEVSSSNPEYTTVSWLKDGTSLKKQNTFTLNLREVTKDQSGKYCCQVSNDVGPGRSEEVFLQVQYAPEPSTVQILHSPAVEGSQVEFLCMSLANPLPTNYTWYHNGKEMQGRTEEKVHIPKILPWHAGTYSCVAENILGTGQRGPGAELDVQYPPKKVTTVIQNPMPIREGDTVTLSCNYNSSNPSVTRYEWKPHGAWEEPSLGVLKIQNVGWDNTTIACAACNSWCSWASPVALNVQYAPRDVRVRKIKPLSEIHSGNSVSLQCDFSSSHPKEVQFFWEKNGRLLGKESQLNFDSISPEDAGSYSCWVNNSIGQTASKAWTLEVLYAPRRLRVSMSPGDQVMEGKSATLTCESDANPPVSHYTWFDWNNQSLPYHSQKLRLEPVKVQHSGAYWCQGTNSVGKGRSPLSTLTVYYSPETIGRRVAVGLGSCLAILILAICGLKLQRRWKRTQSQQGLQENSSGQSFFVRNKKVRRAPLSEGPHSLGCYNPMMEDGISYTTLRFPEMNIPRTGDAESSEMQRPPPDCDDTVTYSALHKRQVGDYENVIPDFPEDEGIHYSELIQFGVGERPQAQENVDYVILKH
Test: SPR binding affinity to human CD22
Details: steady-state analysis

*Q* Please give measured Kd of the following entry: C#CCCOc1ccc(CO[C@]2(C(=O)O)C[C@H](O)[C@@H](NC(=O)CO)[C@H]([C@H](O)[C@H](O)CNC(=O)C(OC)(c3ccccc3)C(F)(F)F)O2)cc1 (some centres unmarked)
*A* 1 to 10 µM
